Entries and their measured Activity follow.
test system: Escherichia coli; experiment: Effect on ompF-lacZ fusion translation in ompX-negative Escherichia coli mutant assessed as percent decrease in Miller units of beta-galactosidase activity after 120 mins relative to control; assay type: functional; design: scale not given: the % may be the effect or the level left
observedProperty: Activity (%)

> print(dat)
                             moleculesmiles  valueunits   val
1  CCn1cc(C(=O)O)c(=O)c2cc(F)c(N3CCNCC3)cc21           %    22
2                           O=C(O)c1ccccc1O           %  43.7
3  CO[C@@H]1[C@@H](OC(N)=O)[C@@H](O)[C@H](Oc2ccc3c(O)c(NC(=O)c4ccc(O)c(CC=C(C)C)c4)c(=O)oc3c2C)OC1(C)C           %  55.2
4                       c1ccc(-c2ccccn2)nc1           %  28.6
